experiment: Tumor cell line cytotoxicity of flavonoid dimers, LCC6; format: cell-based, human; conditions: human, LCC6 cells, IC50 of compound alone
// values below are reported IC50 at 72 h
Quick note: give the figure in µM, leave out the unit.

These solved cases illustrate the format of a correct answer.
- Compound: "O=c1cc(-c2ccc(OCCOCCNCCOCCOc3ccc(-c4cc(=O)c5cc(F)ccc5o4)cc3)cc2)oc2ccc(F)cc12 [Compound 12f]"
  Reported endpoint: "IC50 at 72 h"
  Unit descriptor: "µM"
  Reported value: 5.3
- Compound: "O=c1cc(-c2ccc(OCCOCCN(CCOCCOc3ccc(-c4cc(=O)c5ccccc5o4)cc3)Cc3ccccn3)cc2)oc2ccccc12"
  Reported endpoint: "IC50 at 72 h"
  Unit descriptor: "µM"
  Reported value: 10
- Compound: "Cc1ccc2oc(-c3ccc(OCCOCCNCCOCCOc4ccc(-c5cc(=O)c6cc(C)ccc6o5)cc4)cc3)cc(=O)c2c1 [Compound 12c]"
  Reported endpoint: "IC50 at 72 h"
  Unit descriptor: "µM"
  Reported value: 7.5
- Compound: "O=c1cc(-c2ccc(OCCOCCN(CCOCCOc3ccc(-c4cc(=O)c5ccccc5o4)cc3)Cc3ccc(O)cc3)cc2)oc2ccccc12 [Compound 42d]"
  Reported endpoint: "IC50 at 72 h"
  Unit descriptor: "µM"
  Reported value: 5.4
- Compound: "O=C1c2ccccc2C(=O)N1CCN(CCOCCOc1ccc(-c2cc(=O)c3ccccc3o2)cc1)CCOCCOc1ccc(-c2cc(=O)c3ccccc3o2)cc1 [Compound 23c]"
  Reported endpoint: "IC50 at 72 h"
  Unit descriptor: "µM"
  Reported value: 8.6

Now, please, on to the next compound.
Lookup: Need IC50 at 72 h of "O=c1cc(-c2ccc(OCCOCCN(CCOCCOc3ccc(-c4cc(=O)c5ccccc5o4)cc3)CC3CCCCC3)cc2)oc2ccccc12" , thanks.
Found: 10

---

target: Pgp (LCC6MDR cells) (Homo sapiens); experiment: Cell proliferation assay: Pgp-modulating activity, reversal of anticancer drug resistance in LCC6MDR cells; details: RF = (IC50 without modulator)/(IC50 with 1.0 μM modulator), paclitaxel, LCC6MDR
Reported endpoint: RF (Relative Fold), cpd at 1 μM

- Compound: "O=c1cc(-c2ccc(OCCOCCN(CCOCCOc3ccc(-c4cc(=O)c5ccccc5o4)cc3)c3ccccc3)cc2)oc2ccccc12 [Compound 64h]"
  Reported value: "(72.9)"
- Compound: "Nc1ccc(CN(CCOCCOc2ccc(-c3cc(=O)c4ccccc4o3)cc2)CCOCCOc2ccc(-c3cc(=O)c4ccccc4o3)cc2)cc1 [Compound 55]"
  Reported value: "(72.9)"

---

target: Pgp (LCC6MDR cells) (Homo sapiens, UniProt P08183); assay: Cell proliferation assay: Pgp-modulating activity, reversal of anticancer drug resistance in LCC6MDR cells; conditions: RF = (IC50 without modulator)/(IC50 with 1.0 μM modulator), paclitaxel, LCC6MDR
Sequence (P08183 whole entry): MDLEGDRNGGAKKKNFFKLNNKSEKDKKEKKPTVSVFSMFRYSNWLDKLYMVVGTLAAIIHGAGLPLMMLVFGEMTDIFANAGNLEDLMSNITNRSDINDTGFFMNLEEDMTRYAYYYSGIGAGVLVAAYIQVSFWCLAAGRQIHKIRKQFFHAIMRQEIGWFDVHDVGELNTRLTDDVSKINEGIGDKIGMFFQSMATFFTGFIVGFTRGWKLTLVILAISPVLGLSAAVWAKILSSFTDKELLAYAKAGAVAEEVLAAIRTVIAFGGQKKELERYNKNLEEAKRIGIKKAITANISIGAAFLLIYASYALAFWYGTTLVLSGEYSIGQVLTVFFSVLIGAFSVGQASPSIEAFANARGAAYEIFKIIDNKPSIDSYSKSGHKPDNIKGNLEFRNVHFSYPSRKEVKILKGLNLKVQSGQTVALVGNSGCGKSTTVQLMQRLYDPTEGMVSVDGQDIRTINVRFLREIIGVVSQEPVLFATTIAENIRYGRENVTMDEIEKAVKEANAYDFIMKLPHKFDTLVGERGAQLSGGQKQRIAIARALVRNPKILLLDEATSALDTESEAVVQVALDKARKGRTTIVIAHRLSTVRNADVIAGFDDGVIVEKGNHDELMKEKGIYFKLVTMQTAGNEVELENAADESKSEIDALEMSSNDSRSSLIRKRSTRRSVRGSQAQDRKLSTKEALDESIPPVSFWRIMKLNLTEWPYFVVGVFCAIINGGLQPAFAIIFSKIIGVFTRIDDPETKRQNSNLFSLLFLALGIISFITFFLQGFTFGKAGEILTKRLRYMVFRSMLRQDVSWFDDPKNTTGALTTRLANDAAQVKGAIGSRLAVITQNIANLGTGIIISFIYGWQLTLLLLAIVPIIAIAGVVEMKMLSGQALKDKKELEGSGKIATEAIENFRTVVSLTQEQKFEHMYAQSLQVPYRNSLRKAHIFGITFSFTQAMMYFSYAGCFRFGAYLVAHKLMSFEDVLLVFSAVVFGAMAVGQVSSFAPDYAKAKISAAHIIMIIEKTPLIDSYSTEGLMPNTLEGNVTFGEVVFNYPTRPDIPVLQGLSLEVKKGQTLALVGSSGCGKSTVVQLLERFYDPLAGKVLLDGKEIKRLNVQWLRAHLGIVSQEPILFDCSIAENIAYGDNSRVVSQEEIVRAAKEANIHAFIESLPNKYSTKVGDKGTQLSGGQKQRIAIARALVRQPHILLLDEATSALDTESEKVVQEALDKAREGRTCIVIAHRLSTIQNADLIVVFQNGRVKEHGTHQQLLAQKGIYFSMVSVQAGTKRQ
Reported endpoint: RF (Relative Fold), cpd at 1 μM

Example results:
- Compound: "O=c1cc(-c2ccc(OCCOCCN(CCOCCOc3ccc(-c4cc(=O)c5ccccc5o4)cc3)Cc3cccc4ccccc34)cc2)oc2ccccc12"
  Reported value: "(80.6)"
- Compound: "O=c1cc(-c2ccc(OCCOCCN(CCOCCOc3ccc(-c4cc(=O)c5ccccc5o4)cc3)Cc3cccc(Cl)c3)cc2)oc2ccccc12"
  Reported value: "(80.6)"
- Compound: "O=c1cc(-c2ccc(OCCOCCN(CCOCCOc3ccc(-c4cc(=O)c5ccccc5o4)cc3)Cc3ccc4ccccc4c3)cc2)oc2ccccc12"
  Reported value: "(117.8)"
- Compound: "O=c1cc(-c2ccc(OCCOCCN(CCOCCOc3ccc(-c4cc(=O)c5ccccc5o4)cc3)Cc3ccc(O)cc3)cc2)oc2ccccc12 [Compound 42d]"
  Reported value: "(117.8)"
- Compound: "CCc1ccc(CN(CCOCCOc2ccc(-c3cc(=O)c4ccccc4o3)cc2)CCOCCOc2ccc(-c3cc(=O)c4ccccc4o3)cc2)cc1"
  Reported value: "(69.6)"

Lookup: Consider the compound COc1ccc(CN(CCOCCOc2ccc(-c3cc(=O)c4ccccc4o3)cc2)CCOCCOc2ccc(-c3cc(=O)c4ccccc4o3)cc2)cc1 [Compound 42a] and give its measured RF (Relative Fold), cpd at 1 μM.
Found: (117.8)

Lookup: Please report the recorded RF (Relative Fold), cpd at 1 μM for "COc1cccc(CN(CCOCCOc2ccc(-c3cc(=O)c4ccccc4o3)cc2)CCOCCOc2ccc(-c3cc(=O)c4ccccc4o3)cc2)c1" .
Found: (95.7)

Lookup: I'd like to know its RF (Relative Fold), cpd at 1 μM. The compound in question is O=c1cc(-c2ccc(OCCOCCN(CCOCCOc3ccc(-c4cc(=O)c5ccccc5o4)cc3)Cc3ccnc4ccccc34)cc2)oc2ccccc12 [Compound 64f]
Found: (69.6)

Lookup: I am curious: what RF (Relative Fold), cpd at 1 μM value has been reported for "Cc1ccc(CN(CCOCCOc2ccc(-c3cc(=O)c4ccccc4o3)cc2)CCOCCOc2ccc(-c3cc(=O)c4ccccc4o3)cc2)cc1" ?
Found: (109.4)

---

// values below are reported IC50 at 72 h
test: Cytotoxicity over LCC6, LCC6MDR and L929 cell lines; format: cell-based, human, mouse; settings: human, mouse, LCC6MDR and L929 cell lines; cancer lines LCC6, LCC6MDR and/or L929

Consider the worked cases shown below.
- Compound: "O=c1cc(-c2ccc(OCCOCCN(CCOCCOc3ccc(-c4cc(=O)c5ccccc5o4)cc3)Cc3cccc(F)c3)cc2)oc2ccccc12"
  IC50 at 72 h: "> 100 µM"
- Compound: "O=C1c2ccccc2C(=O)N1CCN(CCOCCOc1ccc(-c2cc(=O)c3ccccc3o2)cc1)CCOCCOc1ccc(-c2cc(=O)c3ccccc3o2)cc1 [Compound 23c]"
  IC50 at 72 h: "4.9 to 8.6 µM"
- Compound: "O=c1cc(-c2ccc(OCCOCCN(CCOCCOc3ccc(-c4cc(=O)c5ccccc5o4)cc3)Cc3cc(F)c(F)c(F)c3)cc2)oc2ccccc12"
  IC50 at 72 h: "> 100 µM"

Lookup: Name the recorded IC50 at 72 h for "O=c1cc(-c2ccc(OCCOCCN(CCOCCOc3ccc(-c4cc(=O)c5ccccc5o4)cc3)Cc3ccccc3)cc2)oc2ccccc12" .
Found: > 63 µM

Lookup: // lookup IC50 at 72 h for "O=c1cc(-c2ccc(OCCOCCN(CCOCCOc3ccc(-c4cc(=O)c5ccccc5o4)cc3)Cc3ccccc3F)cc2)oc2ccccc12"
Found: > 100 µM

Lookup: Consider the compound "O=c1cc(-c2ccc(OCCOCCN(CCOCCOc3ccc(-c4cc(=O)c5ccccc5o4)cc3)Cc3ccc([N+](=O)[O-])cc3)cc2)oc2ccccc12" and give its measured IC50 at 72 h.
Found: > 90 µM

---

tested on: LCC6 cells; experiment: Tumor cell line cytotoxicity of flavonoid dimers, LCC6; assay type: cell-based, human; conditions: IC50 of compound alone, 72 hrs
Quick reference for IC50 among some molecules

- Molecule: "CCOC(=O)CCN(CCOCCOc1ccc(-c2cc(=O)c3ccccc3o2)cc1)CCOCCOc1ccc(-c2cc(=O)c3ccccc3o2)cc1 [Compound 15]"
  IC50: "13.5 µM"
- Molecule: "Cc1ccc(S(=O)(=O)N(CCOCCOc2ccc(-c3cc(=O)c4ccccc4o3)cc2)CCOCCOc2ccc(-c3cc(=O)c4ccccc4o3)cc2)cc1 [Compound 25a]"
  IC50: "> 100 µM"
- Molecule: "O=C(O)CCC(=O)N(CCOCCOc1ccc(-c2cc(=O)c3ccccc3o2)cc1)CCOCCOc1ccc(-c2cc(=O)c3ccccc3o2)cc1 [Compound 23a]"
  IC50: "78.4 µM"
- Molecule: "Cc1ccc2oc(-c3ccc(OCCOCCN(CCOCCOc4ccc(-c5cc(=O)c6cc(C)ccc6o5)cc4)C(=O)OC(C)(C)C)cc3)cc(=O)c2c1 [Compound 17c]"
  IC50: "> 100 µM"
- Molecule: "CCN(CCOCCOc1ccc(-c2cc(=O)c3ccccc3o2)cc1)CCOCCOc1ccc(-c2cc(=O)c3ccccc3o2)cc1 [Compound 13]"
  IC50: "10.3 µM"

Lookup: IC50 lookup needed for CC(C)(C)OC(=O)N(CCOCCOc1ccc(-c2cc(=O)c3c(OCc4ccccc4)cccc3o2)cc1)CCOCCOc1ccc(-c2cc(=O)c3c(OCc4ccccc4)cccc3o2)cc1 [Compound 16e] , thanks.
Found: > 100 µM

Lookup: Which IC50 is reported for this molecule? O=c1cc(-c2ccc(OCCOCCN(CCO)CCOCCOc3ccc(-c4cc(=O)c5ccccc5o4)cc3)cc2)oc2ccccc12 [Compound 14]
Found: 10.7 µM

---

assay: Tumor cell line cytotoxicity of flavonoid dimers, LCC6; assay type: cell-based, human; conditions: human, LCC6 cells, IC50 of compound alone
Property: IC50 at 72 h; scope: individual compounds

Here are 2 compounds together with their reported answers.
- Compound: "O=c1cc(-c2ccc(OCCOCCN(CCOCCOc3ccc(-c4cc(=O)c5ccccc5o4)cc3)Cc3ccc(OC(F)(F)F)cc3)cc2)oc2ccccc12 [Compound 42b]"
  Reported value: "> 100 µM"
- Compound: "O=c1cc(-c2ccc(OCCOCCNCCOCCOc3ccc(-c4cc(=O)c5ccccc5o4)cc3)cc2)oc2ccccc12 [Compound 12a]"
  Reported value: "3.3 µM"

As a next step, examine the compound that follows.
Lookup: Please report the recorded IC50 at 72 h for "N#Cc1ccc(CN(CCOCCOc2ccc(-c3cc(=O)c4ccccc4o3)cc2)CCOCCOc2ccc(-c3cc(=O)c4ccccc4o3)cc2)cc1" .
Found: > 100 µM
